experiment description: Tmax in Sprague-Dawley rat at 1 mg/kg, po administered via gavage measured under fasted conditions by LC-MS/MS analysis
Type: ADME, organism-based
Parameters: dose 1 mg/kg, route oral
experimental conditions: in vivo
readout kind: Tmax (min)

[[record]]
smiles_repr = "O=C(O)c1cccc(-c2cccc(CCS)c2C(=O)O)c1"
readout_number = 34.8


----------
experiment description: Half life in Sprague-Dawley rat at 30 mg/kg, iv administered as bolus injection measured under fasted conditions by LC-MS/MS analysis
Type: ADME, organism-based
Parameters: dose 30 mg/kg, route intravenous
experimental conditions: in vivo
readout kind: half-life (h)

[[record]]
smiles_repr = "O=C(O)c1cccc(-c2cccc(CCS)c2C(=O)O)c1"
readout_number = 4.07


----------
experiment description: AUC(0 to last) in Sprague-Dawley rat at 10 mg/kg, iv by LC-MS/MS analysis
Format: ADME, organism-based
Set-up: time 0 - last, dose 10 mg/kg, route intravenous
experimental conditions: plasma
readout kind: AUC(0-t)

[[record]]
smiles_repr = "O=C(O)c1cccc(-c2cccc(CCS)c2C(=O)O)c1"
result = "86700 ng·h/mL"


----------
experiment description: AUC(0 to infinity) in Sprague-Dawley rat at 5 mg/kg, iv by LC-MS/MS analysis
Format: ADME, organism-based
Parameters: dose 5 mg/kg, route intravenous, time infinity
experimental conditions: plasma
readout kind: AUC(0-inf) (µg·h/mL)

[[record]]
smiles_repr = "O=C(O)c1cccc(-c2cccc(CCSSCCc3cccc(-c4cccc(C(=O)O)c4)c3C(=O)O)c2C(=O)O)c1"
readout_number = 3540


----------
experiment description: Phase 1 metabolic stability in mouse liver microsomes assessed as compound remaining at 10 uM measured for 1 hr by LC-MS/MS analysis
Type: ADME
experimental conditions: read-out: Stability
readout kind: remaining at 1 h, 10 µM

[[record]]
smiles_repr = "O=C(O)c1cccc(-c2cccc(CCS)c2C(=O)O)c1"
result = "> 90%"


----------
experiment description: Clearance in Sprague-Dawley rat at 5 mg/kg, iv by LC-MS/MS analysis
Type: ADME, organism-based
Parameters: dose 5 mg/kg, route intravenous
experimental conditions: in vivo
readout kind: clearance (mL/h/kg)

[[record]]
smiles_repr = "O=C(O)c1cccc(-c2cccc(CCSSCCc3cccc(-c4cccc(C(=O)O)c4)c3C(=O)O)c2C(=O)O)c1"
readout_kind = "clearance"
unit_of_measure = "mL/h/kg"
readout_number = 1.5


----------
experiment description: Phase 1 metabolic stability in dog liver microsomes assessed as compound remaining at 10 uM measured for 1 hr by LC-MS/MS analysis
Type: ADME, Canis lupus familiaris
experimental conditions: read-out: Stability
readout kind: remaining at 1 h, 10 µM

[[record]]
smiles_repr = "O=C(O)c1cccc(-c2cccc(CCS)c2C(=O)O)c1"
readout_kind = "remaining at 1 h, 10 µM"
result = "> 90%"


----------
experiment description: Metabolic stability in Sprague-Dawley rat plasma assessed as compound remaining at 5 uM after 1 hr by LC-MS/MS analysis
Format: ADME, cell-free
experimental conditions: read-out: Stability
readout kind: remaining at 1 h, 5 µM (%)

[[record]]
smiles_repr = "O=C(O)c1cccc(-c2cccc(CCS)c2C(=O)O)c1"
readout_kind = "remaining at 1 h, 5 µM"
unit_of_measure = "%"
readout_number = 55


----------
experiment description: Volume of distribution in Sprague-Dawley rat at 30 mg/kg, iv administered as bolus injection measured under fasted conditions by LC-MS/MS analysis
Assay type: ADME, organism-based
Set-up: dose 30 mg/kg, route intravenous
experimental conditions: in vivo
readout kind: Vd

[[record]]
smiles_repr = "O=C(O)c1cccc(-c2cccc(CCS)c2C(=O)O)c1"
result = "1.08 L/kg"


----------
experiment description: Cmax in Sprague-Dawley rat at 0.1 mg/kg, po administered via gavage measured under fasted conditions by LC-MS/MS analysis
Assay type: ADME, organism-based
Set-up: dose 0.1 mg/kg, route oral
experimental conditions: in vivo
readout kind: Cmax (ng/mL)

[[record]]
smiles_repr = "O=C(O)c1cccc(-c2cccc(CCS)c2C(=O)O)c1"
readout_kind = "Cmax"
readout_number = 62.6


----------
experiment description: Tmax in cynomolgus monkey at 5 mg/kg, iv administered as bolus injection by LC-MS/MS analysis
Format: ADME, organism-based, Macaca fascicularis
Set-up: dose 5 mg/kg, route intravenous
experimental conditions: in vivo
readout kind: Tmax (min)

[[record]]
smiles_repr = "O=C(O)c1cccc(-c2cccc(CCS)c2C(=O)O)c1"
unit_of_measure = "min"
readout_number = 4.8


----------
experiment description: Cmax in Sprague-Dawley rat liver at 10 mg/kg, po administered as single dose measured per gm of tissue by LC-MS/MS analysis
Assay type: ADME, organism-based
Parameters: dose 10 mg/kg, route oral
readout kind: Cmax

[[record]]
smiles_repr = "O=C(O)c1cccc(-c2cccc(CCS)c2C(=O)O)c1"
result = "453 ng/g"


----------
experiment description: Cmax in Sprague-Dawley rat at 1 mg/kg, po administered via gavage measured under fasted conditions by LC-MS/MS analysis
Type: ADME, organism-based
Design: dose 1 mg/kg, route oral
experimental conditions: in vivo
readout kind: Cmax (ng/mL)

[[record]]
smiles_repr = "O=C(O)c1cccc(-c2cccc(CCS)c2C(=O)O)c1"
readout_kind = "Cmax"
readout_number = 1100


----------
experiment description: Tmax in cynomolgus monkey at 5 mg/kg, po by LC-MS/MS analysis
Type: ADME, organism-based, Macaca fascicularis
Set-up: dose 5 mg/kg, route oral
experimental conditions: in vivo
readout kind: Tmax (min)

[[record]]
smiles_repr = "O=C(O)c1cccc(-c2cccc(CCS)c2C(=O)O)c1"
readout_number = 25.2


----------
experiment description: Clearance in Sprague-Dawley rat at 0.1 mg/kg, iv administered as bolus injection measured under fasted conditions by LC-MS/MS analysis
Format: ADME, organism-based
Parameters: dose 0.1 mg/kg, route intravenous
experimental conditions: in vivo
readout kind: clearance (mL/min/kg)

[[record]]
smiles_repr = "O=C(O)c1cccc(-c2cccc(CCS)c2C(=O)O)c1"
readout_kind = "clearance"
readout_number = 1


----------
experiment description: Phase 2 metabolic stability in dog liver microsomes assessed as compound remaining at 10 uM measured for 1 hr by LC-MS/MS analysis in absence of cofactors
Type: ADME, Canis lupus familiaris
experimental conditions: read-out: Stability
readout kind: remaining at 1 h, 10 µM

[[record]]
smiles_repr = "O=C(O)c1cccc(-c2cccc(CCS)c2C(=O)O)c1"
readout_kind = "remaining at 1 h, 10 µM"
result = "> 90%"


----------
experiment description: Phase 2 metabolic stability in rat liver microsomes assessed as compound remaining at 10 uM measured for 1 hr by LC-MS/MS analysis
Type: ADME
experimental conditions: read-out: Stability
readout kind: remaining at 1 h, 10 µM

[[record]]
smiles_repr = "O=C(O)c1cccc(-c2cccc(CCS)c2C(=O)O)c1"
result = "> 90%"


----------
experiment description: Apparent volume of distribution in Sprague-Dawley rat at 30 mg/kg, po administered via gavage measured under fasted conditions by LC-MS/MS analysis
Type: ADME, organism-based
Design: dose 30 mg/kg, route oral
experimental conditions: in vivo
readout kind: Vd/F (L/kg)

[[record]]
smiles_repr = "O=C(O)c1cccc(-c2cccc(CCS)c2C(=O)O)c1"
readout_kind = "Vd/F"
unit_of_measure = "L/kg"
readout_number = 2.39


----------
experiment description: AUC(0 to infinity) in Sprague-Dawley rat at 0.1 mg/kg, iv administered as bolus injection measured under fasted conditions by LC-MS/MS analysis
Assay type: ADME, organism-based
Design: time infinity, dose 0.1 mg/kg, route intravenous
experimental conditions: plasma
readout kind: AUC(0-inf)

[[record]]
smiles_repr = "O=C(O)c1cccc(-c2cccc(CCS)c2C(=O)O)c1"
result = "1970 ng·h/mL"


----------
experiment description: Apparent volume of distribution in Sprague-Dawley rat at 0.1 mg/kg, po administered via gavage measured under fasted conditions by LC-MS/MS analysis
Assay type: ADME, organism-based
Design: dose 0.1 mg/kg, route oral
experimental conditions: in vivo
readout kind: Vd/F

[[record]]
smiles_repr = "O=C(O)c1cccc(-c2cccc(CCS)c2C(=O)O)c1"
result = "2.98 L/kg"


----------
experiment description: Tmax in Sprague-Dawley rat at 30 mg/kg, po administered via gavage measured under fasted conditions by LC-MS/MS analysis
Assay type: ADME, organism-based
Design: dose 30 mg/kg, route oral
experimental conditions: in vivo
readout kind: Tmax (h)

[[record]]
smiles_repr = "O=C(O)c1cccc(-c2cccc(CCS)c2C(=O)O)c1"
readout_kind = "Tmax"
readout_number = 1.43


----------
experiment description: Tmax in Sprague-Dawley rat at 10 mg/kg, po administered via gavage measured under fed conditions by LC-MS/MS analysis
Assay type: ADME, organism-based
Parameters: dose 10 mg/kg, route oral
experimental conditions: in vivo
readout kind: Tmax (min)

[[record]]
smiles_repr = "O=C(O)c1cccc(-c2cccc(CCS)c2C(=O)O)c1"
readout_kind = "Tmax"
unit_of_measure = "min"
readout_number = 17.4


----------
experiment description: AUC(0 to last) in Sprague-Dawley rat at 1 mg/kg, iv administered as bolus injection measured under fasted conditions by LC-MS/MS analysis
Assay type: ADME, organism-based
Parameters: time 0 - last, dose 1 mg/kg, route intravenous
experimental conditions: plasma
readout kind: AUC(0-t)

[[record]]
smiles_repr = "O=C(O)c1cccc(-c2cccc(CCS)c2C(=O)O)c1"
readout_kind = "AUC(0-t)"
result = "12700 ng·h/mL"

